Reference for the values: ChEMBL document CHEMBL1221210

This listing pairs molecules with measured IC50.
- Test system: SW480
- run description: Antiproliferative activity against p53 deficient human SW480 cells after 72 hrs by proliferative assay
- Assay type: functional, cell-based
- experimental conditions: SW480, 72 h
quantity measured: IC50 (nM)

1) O=c1[nH]cc(F)c(=O)[nH]1 = 26300
2) Nc1ccn([C@@H]2O[C@H](CO)[C@@H](O)C2(F)F)c(=O)n1 = 13.6
3) O=C1NCCc2[nH]c(-c3ccncc3)cc21 = 2670

====

Target chain: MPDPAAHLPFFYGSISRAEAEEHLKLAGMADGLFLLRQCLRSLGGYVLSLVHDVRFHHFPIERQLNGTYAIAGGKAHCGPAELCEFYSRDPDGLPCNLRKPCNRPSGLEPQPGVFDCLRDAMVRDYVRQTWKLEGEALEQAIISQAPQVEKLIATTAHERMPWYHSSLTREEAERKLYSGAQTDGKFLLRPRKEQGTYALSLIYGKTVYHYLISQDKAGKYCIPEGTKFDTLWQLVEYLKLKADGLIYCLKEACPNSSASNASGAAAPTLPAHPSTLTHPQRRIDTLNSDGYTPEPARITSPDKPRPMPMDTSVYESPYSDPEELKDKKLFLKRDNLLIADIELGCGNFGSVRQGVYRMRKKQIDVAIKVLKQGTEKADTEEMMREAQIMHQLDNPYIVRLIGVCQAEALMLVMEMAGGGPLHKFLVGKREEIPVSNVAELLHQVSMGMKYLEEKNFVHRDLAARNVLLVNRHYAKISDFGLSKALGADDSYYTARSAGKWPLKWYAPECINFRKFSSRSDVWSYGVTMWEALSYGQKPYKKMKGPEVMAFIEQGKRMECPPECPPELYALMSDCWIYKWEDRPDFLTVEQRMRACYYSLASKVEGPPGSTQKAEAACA
pIC50: −log10 of the molar value.
quantity measured: pIC50

1) O=C1NCCc2[nH]c(-c3ccncc3)cc21 = < 5.00

====

- Tested on: A2780
- run description: Antiproliferative activity against human A2780 cells expressing p53 gene after 72 hrs by proliferative assay
- Assay type: functional, cell-based
- experimental conditions: A2780, 72 h
quantity measured: IC50 (µM)

1. Nc1ccn([C@@H]2O[C@H](CO)[C@@H](O)C2(F)F)c(=O)n1 = 0.0166
2. O=c1[nH]cc(F)c(=O)[nH]1 = 7.21

====

- target under test: Serine/threonine-protein kinase TAO3 (Homo sapiens, UniProt Q9H2K8)
- Sequence (Q9H2K8 whole entry): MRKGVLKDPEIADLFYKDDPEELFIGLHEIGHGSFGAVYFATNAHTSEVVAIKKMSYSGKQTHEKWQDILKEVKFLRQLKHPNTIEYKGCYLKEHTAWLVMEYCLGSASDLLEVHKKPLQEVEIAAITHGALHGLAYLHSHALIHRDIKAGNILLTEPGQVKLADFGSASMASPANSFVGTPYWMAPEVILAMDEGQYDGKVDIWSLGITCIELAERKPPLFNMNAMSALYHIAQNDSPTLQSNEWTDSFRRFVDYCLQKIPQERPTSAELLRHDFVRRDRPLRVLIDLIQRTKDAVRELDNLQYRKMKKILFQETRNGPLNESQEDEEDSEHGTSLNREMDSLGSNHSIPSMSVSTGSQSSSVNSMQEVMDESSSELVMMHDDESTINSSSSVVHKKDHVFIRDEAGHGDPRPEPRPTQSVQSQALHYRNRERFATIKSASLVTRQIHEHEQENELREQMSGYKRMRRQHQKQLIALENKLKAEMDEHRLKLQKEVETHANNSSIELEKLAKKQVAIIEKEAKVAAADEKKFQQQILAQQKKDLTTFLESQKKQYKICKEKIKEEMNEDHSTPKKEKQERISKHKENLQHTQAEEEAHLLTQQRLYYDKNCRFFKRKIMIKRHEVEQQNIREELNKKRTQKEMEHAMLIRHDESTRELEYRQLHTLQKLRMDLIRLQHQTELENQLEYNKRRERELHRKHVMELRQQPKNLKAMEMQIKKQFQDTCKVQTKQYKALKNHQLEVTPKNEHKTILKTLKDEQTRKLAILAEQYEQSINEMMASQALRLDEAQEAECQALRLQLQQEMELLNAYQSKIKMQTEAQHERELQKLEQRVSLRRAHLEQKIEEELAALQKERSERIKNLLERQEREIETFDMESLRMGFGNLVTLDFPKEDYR
- run description: Inhibition of TAO3
quantity measured: IC50

1) O=C1NCCc2[nH]c(-c3ccncc3)cc21 = > 10 µM

====

This listing pairs compounds with measured pIC50.
- Test system: HeLa
- run description: Antiproliferative activity against p53 deficient human HeLa cells after 72 hrs
- Format: functional, cell-based
pIC50: −log10 of the molar value.
quantity measured: pIC50

1) O=C1NCCc2[nH]c(-c3ccncc3)cc21 = 5.74
2) Nc1ccn([C@@H]2O[C@H](CO)[C@@H](O)C2(F)F)c(=O)n1 = < 5.00
3) O=c1[nH]cc(F)c(=O)[nH]1 = < 4.00

====

- run description: Clearance in SCID mouse carrying human HL60 cells at 20 mg/kg or 30 mg/kg, iv after 10 hrs
- Format: ADME, organism-based, HL-60
- experimental conditions: in vivo
quantity measured: clearance (mL/min/kg)

1. O=C1NCCc2[nH]c(-c3ccncc3)cc21 = 30
